Observed IC50, system full-length human His-tagged BTK (Homo sapiens (Human)).
endpoint-label: IC50 (nM)

query_smiles=CC#CC(=O)N1CC[C@]2(C1)C[C@@H](n1nc(-c3ccc(Oc4ccccc4)nc3)c(C(N)=O)c1N)C2 endpoint_label=IC50 unit_label=nM measured=17
query_smiles=C=CC(=O)N1CCC[C@@H](n2cc(C(N)=O)c(-c3ccc(Oc4cccc(F)c4)cc3)n2)C1 endpoint_label=IC50 unit_label=nM measured=9.3
query_smiles=C=CC(=O)N1CC[C@]2(C1)C[C@H](n1nc(-c3ccc(C(F)(F)F)cc3)c(C(N)=O)c1N)C2 endpoint_label=IC50 unit_label=nM measured=6.4
query_smiles=C=CC(=O)N1CCC(n2cc(C(N)=O)c(-c3ccc(Oc4ccccc4)cc3)n2)CC1 endpoint_label=IC50 unit_label=nM measured=6.6
query_smiles=C=CC(=O)N1CCC[C@H]1Cn1cc(C(N)=O)c(-c2ccc(Oc3ccccc3)cc2)n1 endpoint_label=IC50 unit_label=nM measured=9.7
query_smiles=CN(C)C/C=C/C(=O)N1CC[C@]2(C1)C[C@@H](n1nc(-c3ccc(Oc4ccccc4)cc3)c(C(N)=O)c1N)C2 endpoint_label=IC50 unit_label=nM measured=0.7
query_smiles=C=CC(=O)N1CCC[C@@H](n2cc(C(N)=O)c(-c3ccc(Oc4ccccc4)c(OC)c3)n2)C1 endpoint_label=IC50 unit_label=nM measured=7.6
query_smiles=C=CC(=O)N1CCC[C@@H](n2cc(C(N)=O)c(-c3ccc(NC(=O)Nc4cccc(C)c4)cc3)n2)C1 endpoint_label=IC50 unit_label=nM measured=41
query_smiles=CC#CC(=O)N1CC2(CC(n3nc(-c4ccc(OCCC)c(F)c4)c(C(N)=O)c3N)C2)C1 endpoint_label=IC50 unit_label=nM measured=2.2
query_smiles=C=CC(=O)N1CCC[C@@H](n2cc(C(N)=O)c(-c3ccc(Oc4ccc(F)cc4)cc3)n2)C1 endpoint_label=IC50 unit_label=nM measured=93
query_smiles=C=CC(=O)N1CC2(CC(n3nc(-c4ccc(OCC5CC5)cc4)c(C(N)=O)c3N)C2)C1 endpoint_label=IC50 unit_label=nM measured=19
query_smiles=CC#CC(=O)N1CC2(CC(n3nc(-c4ccc(F)c(C(F)(F)F)c4)c(C(N)=O)c3N)C2)C1 endpoint_label=IC50 unit_label=nM measured=37
query_smiles=C=CC(=O)N1CC[C@]2(C1)C[C@@H](n1nc(-c3ccc(C(F)(F)F)cc3)c(C(N)=O)c1N)C2 endpoint_label=IC50 unit_label=nM measured=28
query_smiles=CC#CC(=O)N1CC[C@]2(C1)C[C@@H](n1cc(C(N)=O)c(-c3ccc(Oc4ccccc4)cc3)n1)C2 endpoint_label=IC50 unit_label=nM measured=34
query_smiles=C=CC(=O)N1CC[C@]2(C1)C[C@H](n1cc(C(N)=O)c(-c3ccc(Oc4ccccc4)cc3)n1)C2 endpoint_label=IC50 unit_label=nM measured=4.9
query_smiles=C=CC(=O)N1CC2(CC(n3nc(-c4ccc(Oc5ccccc5)cc4)c(C(N)=O)c3N)C2)C1 endpoint_label=IC50 unit_label=nM measured=0.77

Data provenance: patent US10138229B2
